- Test system: NCI-H23 lung
- assay_info: NCI tumour cell line growth inhibition, 48 h
Quick list: TGI per entry.

Here's what some known entries look like.
O=C(O)CC[C@H](NC(=O)c1ccc(-n2nc3ccc(O)cc3nc2=O)cc1)C(=O)O	> 100 µM
CCOP(=O)(/C=C\n1cc(C)c(=O)[nH]c1=O)OCC	> 100 µM
O=C(c1ccc(Cl)cc1Cl)C1[C@H]2C(=O)N(c3ccc(Cc4ccc(N5C(=O)[C@@H]6ON(c7ccccc7)C(C(=O)c7ccc(Cl)cc7Cl)[C@@H]6C5=O)cc4)cc3)C(=O)[C@H]2ON1c1ccccc1 (stereo not given in full)	> 50 µM
O=C1C=CC(=O)C2=C1[C@@H](O)C1CC=CC3C(=O)O[C@@H]2C31 (stereo not given in full)	> 68 µM
O=c1cc(N2CCCC2)[nH]c(=O)n1Cc1ccccc1	> 100 µM

Field TGI (entry CC(=O)OCC1OC(SC2=N/C(=C\c3ccc(Br)s3)C(=O)N2CN2CCOCC2)C(OC(C)=O)C(OC(C)=O)C1OC(C)=O (stereo not given) ) reads 27.2 µM

Field TGI (entry COc1cccc(-c2c[nH]c3c(N/N=C/c4ccncc4)ncnc23)c1 ) reads 11.8 µM

Field TGI (entry N#CC1(C#N)NC(c2cccs2)C(C#N)(C#N)NC1c1cccs1 (stereo not given) ) reads > 100 µM

Field TGI (entry O=[N+]([O-])c1ccc(-n2nnc(C3=NCCN3)c2-c2ccccc2)cc1 ) reads > 100 µM
